B1: EPB41L3 (parent)
chain: GSKFRYSGRTQAQTRRASALIDRP

Variants of: B1
EXPERIMENT NOTES: protein stability index of a GFP-peptide fusion (GPS, HEK-293T) (PSI 1-6); higher = more stable;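 also: lentivirally expressed fusions sorted by FACS into six bins by GFP to DsRed ratio, PSI derived from sequencing read proportions per bin multiplied by bin number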
ASSAY CONDITIONS: c terminus: a fixed tail appended
Give rule met when the value for protein stability index is at least 3. Give rule not met when it is less.

Below, 3 variants whose answers are already recorded.
MUTATION KEY: G8L
GROUP: rule met
--
MUTATION KEY: G1R
GROUP: rule met
--
MUTATION KEY: A12C
GROUP: rule met

## Task For this variant, is measured protein stability index 3 or higher? P24E
## Result rule met

## Task Record R9A ; criterion: protein stability index no lower than 3. Met?
## Result rule not met

## Task Decide: is the reported value of protein stability index for R15L equal to or greater than 3?
## Result rule not met

## Task Please indicate if the recorded protein stability index for L20D meets or exceeds 3.
## Result rule met

## Task Check this variant for protein stability index at or above 3: R5Y
## Result rule not met

## Task Could you tell me if the measured protein stability index of L20F reaches 3 or more?
## Result rule not met

## Task Check if protein stability index >= 3 (inclusive). Item: K3P
## Result rule not met

## Task Does the variant T10Y have recorded protein stability index that is 3 or more?
## Result rule not met

## Task For this variant, is measured protein stability index 3 or higher? K3C
## Result rule not met
